- Tested on: Candida albicans
- ASSAY OVERVIEW: Tested in vivo for anti-candida activity in mice model 1 (dose:0.5 mg/kg, fluconazole-treated group)
- Format: functional
QUANTITY MEASURED: Protection (%)

C[C@@H](n1ncn(-c2ccc(OCC(F)(F)C(F)F)cc2)c1=O)[C@](O)(Cn1cncn1)c1ccc(F)cc1F | 100
C[C@H]([C@](O)(Cn1cncn1)c1ccc(F)cc1F)S(C)(=O)=O | 100
CCC(C)n1ncn(-c2ccc(N3CCN(c4ccc(OC[C@@H]5CO[C@@](Cn6cncn6)(c6ccc(Cl)cc6Cl)O5)cc4)CC3)cc2)c1=O (stereo partly specified) | 0
C[C@@H](c1nc(-c2ccc(C#N)cc2)cs1)[C@](O)(Cn1cncn1)c1ccc(F)cc1F | 0
C[C@@H](c1ncncc1F)[C@](O)(Cn1cncn1)c1ccc(F)cc1F | 0
C[C@@H](NC(=O)c1ccc(C(F)(F)F)cc1)[C@](O)(Cn1cncn1)c1ccc(F)cc1F | 100
